Tested on: corn
test_description: Test C postemergence
Format: in vivo, Zea mays
experimental_parameters: Postemergence, 31 g ai/ha; scale 0 to 100 (0 no effect, 100 complete control); 13 to 15 days
Overview of recorded Plant response rating, Corn for various molecules
observable: Plant response rating, Corn

                        compound_structure                   observable  observed_value
0  CCOc1cnn(-c2c(C#N)cccc2Oc2ncc(Cl)cn2)c1  Plant response rating, Corn               5
1    N#Cc1cccc(Oc2ncc(F)cn2)c1-n1cc(Br)cn1  Plant response rating, Corn               5
2     N#Cc1cccc(Oc2ncc(F)cn2)c1-n1cc(I)cn1  Plant response rating, Corn               5
3    N#Cc1cccc(Oc2ncc(Br)cn2)c1-n1cc(I)cn1  Plant response rating, Corn              10

###

Test system: blackgrass
test_description: Test A postemergence
Format: in vivo, Alopecurus myosuroides
experimental_parameters: 125 g ai/ha, 0 to 100 scale where 0 is no effect and 100 is complete control
Overview of recorded Blackgrass plant response rating for various compounds
observable: Blackgrass plant response rating

>>> print(df.to_string())
                         compound_structure  observed_value
0  FC(F)(F)COc1cnn(-c2ccccc2Oc2ncc(Cl)cn2)c1              50
1  CC(C)Oc1cnn(-c2c(C#N)cccc2Oc2ncc(F)cn2)c1              60
2  CC(C)Oc1cnn(-c2c(Br)cccc2Oc2ncc(Cl)cn2)c1              10
3  FC(F)(F)COc1cnn(-c2c(Br)cccc2Oc2ncc(Cl)cn2)c1              40
4  Fc1cnc(Oc2cccc(F)c2-n2cc(OCC(F)(F)F)cn2)nc1              20
5     N#Cc1cnn(-c2c(CF)cccc2Oc2ncc(F)cn2)c1              50
6  CCCOc1cnn(-c2c(C#N)cccc2Oc2ncc(Cl)cn2)c1             100

###

Tested on: velvetleaf
test_description: Test A postemergence
Format: in vivo, Abutilon theophrasti
experimental_parameters: 500 g ai/ha, 0 to 100 scale where 0 is no effect and 100 is complete control
Description: […]
observable: Plant response rating, Velvetleaf

In [3]: df
Out[3]:
                         compound_structure  observed_value
0  CON=Cc1cccc(Oc2ncc(Cl)cn2)c1-n1cc(Br)cn1              90
1     O=Cc1cccc(Oc2ncc(F)cn2)c1-n1cc(Cl)cn1               0
2  O=[N+]([O-])c1cnc(Oc2ccccc2-n2cc(Br)cn2)nc1               0
3        N#Cc1cccc(Oc2ncc(Br)cn2)c1-n1cccn1              30
4  N#Cc1cc(F)cc(Oc2ncc(Br)cn2)c1-n1cc(Br)cn1              60
5  CCOC(=O)c1cnn(-c2c(C#N)cccc2Oc2ncc(Cl)cn2)c1               0

###

Overview of recorded Crabgrass, Large plant response rating for various compounds
Test system: large (Lg) crabgrass
test_description: Test A preemergence
Assay type: in vivo, Digitaria sanguinalis
experimental_parameters: 500 g ai/ha, 0 to 100 scale where 0 is no effect and 100 is complete control
observable: Crabgrass, Large plant response rating

>>> print(df.to_string())
                         compound_structure                              observable  observed_value
0   N#Cc1cnc(Oc2cccc(C=O)c2-n2cc(Br)cn2)nc1  Crabgrass, Large plant response rating               0
1  CCOC(=O)c1cnn(-c2c(C#N)cccc2Oc2ncc(Cl)cn2)c1  Crabgrass, Large plant response rating               0
2   FC(F)c1cccc(Oc2ncc(Br)cn2)c1-n1cc(I)cn1  Crabgrass, Large plant response rating             100
3  O=Cc1cccc(Oc2ncc(F)cn2)c1-n1cc(C(F)(F)F)cn1  Crabgrass, Large plant response rating              10
4        CCOc1cnn(-c2ccccc2Oc2ncc(Cl)cn2)c1  Crabgrass, Large plant response rating             100
5  N#Cc1cnn(-c2c(Oc3ncc(Cl)cn3)cccc2C(F)F)c1  Crabgrass, Large plant response rating             100
6     N#Cc1cccc(Oc2ncc(Cl)cn2)c1-n1cc(I)cn1  Crabgrass, Large plant response rating             100
7  O=Cc1cccc(Oc2ncc(Br)cn2)c1-n1cc(C(F)(F)F)cn1  Crabgrass, Large plant response rating               0
8  COc1ccc(Br)c(-n2cc(Br)cn2)c1Oc1ncc(Cl)cn1  Crabgrass, Large plant response rating              40
9       CC#Cc1cnn(-c2ccccc2Oc2ncc(Cl)cn2)c1  Crabgrass, Large plant response rating             100
